Examples of compounds with documented pIC50 follow.
molecular target: Acetylcholinesterase (Electrophorus electricus)
Sequence (O42275 whole entry): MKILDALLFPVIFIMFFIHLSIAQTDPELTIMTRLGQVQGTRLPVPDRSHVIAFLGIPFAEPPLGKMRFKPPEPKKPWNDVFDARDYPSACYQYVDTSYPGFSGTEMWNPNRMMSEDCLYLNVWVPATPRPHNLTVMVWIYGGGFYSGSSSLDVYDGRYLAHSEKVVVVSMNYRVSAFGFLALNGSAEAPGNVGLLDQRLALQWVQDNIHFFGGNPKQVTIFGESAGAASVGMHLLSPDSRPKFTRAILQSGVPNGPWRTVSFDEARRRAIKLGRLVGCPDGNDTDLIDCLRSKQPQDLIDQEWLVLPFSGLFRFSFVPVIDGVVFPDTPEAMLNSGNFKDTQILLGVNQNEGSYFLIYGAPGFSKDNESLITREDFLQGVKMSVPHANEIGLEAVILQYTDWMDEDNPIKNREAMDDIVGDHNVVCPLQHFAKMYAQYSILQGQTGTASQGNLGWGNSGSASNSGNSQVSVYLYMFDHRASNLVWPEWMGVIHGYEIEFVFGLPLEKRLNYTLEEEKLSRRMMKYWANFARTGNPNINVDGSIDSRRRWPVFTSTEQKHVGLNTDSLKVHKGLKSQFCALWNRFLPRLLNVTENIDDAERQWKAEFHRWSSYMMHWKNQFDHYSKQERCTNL
pIC50: −log10 of the molar value.

chem-smiles: COc1ccc(-c2cc(=O)c3ccc(OCCCCCCCCN4CCCC4)cc3o2)cc1
pIC50: 5.77

chem-smiles: O=c1cc(-c2cccc(O)c2)oc2cc(OCCCCCCCCN3CCCC3)ccc12
pIC50: 5.95

chem-smiles: O=c1cc(-c2ccc(N3CCCC3)cc2)oc2cc(OCCCCCCCCN3CCCC3)ccc12
pIC50: 5.86

chem-smiles: O=c1cc(-c2ccccc2)oc2cc(OCCCCCCCCN3CCCC3)ccc12
pIC50: 5.96

chem-smiles: O=c1cc(-c2ccc(-c3ccccc3)cc2)oc2cc(OCCCCCCCCN3CCCC3)ccc12
pIC50: 5.32
